Hey, just so you know, these numbers are from PubChem BioAssay.

Listed below: z-score values for each entry.
Assay: A549 lung cancer cell viability effects, profiling panel, resazurin fluorescence, 24 h, PK04 Diversity Set (AID 1171); further: test concentration not given here
Details: higher = more signal, called active from +8 up or from −8 down
Metric: z-score

Compound: O[C@@H](Cc1ccccc1)[C@H]1C2C=CCCC(c3ccccc3)=C2CN1Cc1cccc(Cl)c1 (some centres undefined)
Recorded result: 0.75
//
Compound: C=C(/C(=C/C[C@H](OC(C)=O)c1ccc(OCCO)cc1)c1cnc2ccccc2c1)C(C)C
Recorded result: 1.76
//
Compound: CC(C)C[C@@H]1NC(=O)[C@H]2C[C@@H](C(=O)NCCCCCCN(C)C)[C@@H](c3cccc(OCCO)c3)N2C1=O
Recorded result: -0.21
//
Compound: COC(=O)[C@]1(CO)N=C(c2ccc(OCCCO)cc2)O[C@@H]1c1ccccc1N=[N+]=[N-]
Recorded result: -0.276

###

Catalogue of z-score values
Experiment: S. cerevisiae RM11-1a growth modifiers, primary screen, strain RM11-1a, OD600, basal, 24 h (AID 1177);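 further: cultures grown under basal conditions with no added stressor; test concentration not given here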
Settings: OD600, 24 h, higher = more signal, called active from +8 up or from −8 down

Compound: C=C(CCCC)C(=O)CC[C@@H](OC(C)=O)c1cccc(OCCO)c1
z-score: -19.2

Compound: COCCOC(=O)N1C(=O)[C@@]2(c3cc(C#Cc4ccc(OC)cc4)ccc31)[C@H](c1ccc(O)cc1)N1[C@H](c3ccccc3)[C@H](c3ccccc3)OC(=O)[C@H]1[C@@H]2C(N)=O
z-score: 0.0054

Compound: COC(=O)[C@@]1(Cc2ccc(OC)cc2)[C@H]2c3cc(C(=O)N4CCCC4)n(Cc4cc(F)c(F)c(F)c4)c3C[C@H]2CN1C(=O)c1ccccc1
z-score: 0.0628

Compound: COc1ccc(-c2ccc3c(n2)CCCN3CC(O)CN2CCCc3nc(C)c(C)cc32)cc1 (stereo not given)
z-score: -0.256

Compound: Cc1ccc(S[C@]2(C(=O)NCC(F)(F)F)CC(=O)N(Cc3ccccc3Cl)[C@@H]2c2ccc(CO)cc2I)cc1
z-score: -0.54

Compound: CCOC(=O)[C@H](Cc1ccccc1)NC(=O)CCC1CC(OC(=O)NCc2ccc3c(c2)OCO3)CC2(CCCC(COC(=O)NCC(c3ccccc3)c3ccccc3)O2)O1 (stereo not given in full)
z-score: 0.445

Compound: O=C1O[C@@H](c2ccccc2)[C@@H](c2ccccc2)N2[C@@H](c3ccc(O)cc3)[C@]3(C(=O)Nc4ccccc43)[C@@H](C(=O)O)[C@H]12
z-score: -0.472

Compound: C=C(/C(=C/C[C@H](OC(C)=O)c1ccc(OCCO)cc1)c1cnc2ccccc2c1)C(C)C
z-score: -0.705

Compound: Cc1cc2c(c(=O)o1)[C@H](O)[C@H]1O[C@H]1C2=O
z-score: -0.627

Compound: CC(=O)OC[C@H]1O[C@H](CC=NOC[C@@H](C)[C@H](OCc2ccccc2)C(C)C)C=C[C@@H]1OC(C)=O
z-score: -0.0321

Compound: CCCCCCc1nc(CCCc2cc3c(c(CCCCCC)n2)[Si](C(C)C)(C(C)C)O[C@H]3c2ccccc2)cc2c1[Si](C(C)C)(C(C)C)O[C@H]2c1ccccc1
z-score: -0.879

Compound: C[C@@H]1C=CCC(=O)OC[C@H](C)C(=O)OC[C@H]2O[C@H]1C=C[C@H]2O
z-score: 1.14

Compound: COC(=O)CC=C[C@@H](C)[C@@H](C=NO[C@H](C)c1cn([C@@H]2COC[C@H]2O)nn1)OC
z-score: 0.0782

Compound: C=CCNC(=O)[C@H]1[C@@H]2C(=O)O[C@@H](c3ccccc3)[C@@H](c3ccccc3)N2[C@@H](c2ccc(O)cc2)[C@]12C(=O)N(C(=O)OCCOC)c1ccc(C#CC3=CCCCC3)cc12
z-score: 1.01

Compound: O=C1c2ccccc2[C@@]2(Cc3ccccc3N(C3CC3)C2=O)[C@H](c2ccc(CO)cc2)N1Cc1ccccc1C(F)(F)F
z-score: -0.887

###

Target: Torsin-1A (Homo sapiens) (UniProt O14656)
Sequence (O14656 whole entry, looked up): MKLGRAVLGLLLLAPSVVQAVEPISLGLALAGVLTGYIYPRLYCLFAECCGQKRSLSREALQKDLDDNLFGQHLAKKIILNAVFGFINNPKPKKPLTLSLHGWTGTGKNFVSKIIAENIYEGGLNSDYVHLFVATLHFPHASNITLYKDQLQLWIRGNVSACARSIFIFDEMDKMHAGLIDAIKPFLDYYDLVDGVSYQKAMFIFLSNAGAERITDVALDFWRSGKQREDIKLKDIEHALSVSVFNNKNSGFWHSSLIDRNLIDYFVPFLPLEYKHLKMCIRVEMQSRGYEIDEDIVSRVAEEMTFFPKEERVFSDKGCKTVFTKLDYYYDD
Assay: small-molecule binders of mutant TOR1A in lysate, primary screen, cell lysate, small-molecule microarray, COS7 lysate, 635/667 nm fluorescence (AID 1150);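 further: score pools 667 nm emission and signal to noise measuring lysate protein binding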
Conditions: COS7 hTOR1A mutant lysate, 635 nm fluorescence, higher = more signal
Readings of composite z-score for the listed compounds

Compound: C#CCCCON=C1C[C@@H](O)[C@@H](O)[C@@H]2[C@@H]3C(=O)N([C@@H](C)c4ccccc4)C(=O)[C@@H]3CC[C@H]12
System under test: Torsin-1A (Homo sapiens) (UniProt O14656)
composite z-score: 0.126
//
Compound: COc1ccc([Si](C)(C)[C@@H]2[C@@H](CCO)O[C@]3(C(=O)N(Cc4ccc(NC(C)=O)cc4)c4ccccc43)[C@H]2C)cc1
System under test: Torsin-1A (Homo sapiens) (UniProt O14656)
composite z-score: 1.21
//
Compound: CCOC(=O)NN=C1C[C@@H](O)[C@@H](O)[C@@H]2[C@@H]3C(=O)N(C(C)(C)C)C(=O)[C@@H]3CC[C@@H]12
System under test: Torsin-1A (Homo sapiens) (UniProt O14656)
composite z-score: 0.541
//
Compound: O=C1O[C@@H](c2ccccc2)[C@@H](c2ccccc2)N2[C@@H](c3ccc(OCCO)cc3)[C@]3(C(=O)Nc4ccc(C#CCCO)cc43)[C@@H](C(=O)N3CCCCCCC3)[C@H]12
System under test: Torsin-1A (Homo sapiens) (UniProt O14656)
composite z-score: 1.31
//
Compound: CC(C)OC(=O)C=C1C[C@@H](c2ccc(C#N)cc2)O[C@@H](c2ccc(C#N)cc2)O1
System under test: Torsin-1A (Homo sapiens) (UniProt O14656)
composite z-score: 2.06
//
Compound: CCOC(=O)CCN1C(=O)[C@H]2[C@H]3[C@H](O)[C@H](O)CC(=NOCc4ccccc4)[C@@H]3CC[C@H]2C1=O
System under test: Torsin-1A (Homo sapiens) (UniProt O14656)
composite z-score: 0.496
//
Compound: C#CCCCON=C1C[C@@H](O)[C@@H](O)[C@@H]2[C@@H]3C(=O)N(c4cccc(Oc5ccccc5)c4)C(=O)[C@@H]3CC[C@@H]12
System under test: Torsin-1A (Homo sapiens) (UniProt O14656)
composite z-score: 0.112
//
Compound: C=C(/C(=C/C[C@@H](OC(=O)c1ccncc1)c1ccc(OCCO)cc1)c1cnc2ccccc2c1)C(C)C
System under test: Torsin-1A (Homo sapiens) (UniProt O14656)
composite z-score: 0.815
//
Compound: CCc1cccc(NC(=O)O[C@H]2[C@H](OC(=O)Nc3ccc4c(c3)OCO4)[C@@H](OC(=O)Nc3ccc4c(c3)OCO4)[C@@H](OC)O[C@@H]2CO)c1
System under test: Torsin-1A (Homo sapiens) (UniProt O14656)
composite z-score: 0.731
//
Compound: CC(C)=NOCc1cccc(-c2cc(-c3ccccc3)no2)c1
System under test: Torsin-1A (Homo sapiens) (UniProt O14656)
composite z-score: 0.247
//
Compound: CN(C)CCCNC(=O)[C@@H]1c2ccccc2C(=O)N(Cc2ccccc2)[C@H]1c1ccc(CO)cc1
System under test: Torsin-1A (Homo sapiens) (UniProt O14656)
composite z-score: -0.725
//
Compound: COc1ccc([Si](C)(C)[C@H]2[C@H](CC(=O)N3CCC[C@H]3CO)O[C@@]3(C(=O)N(Cc4cccc(N5C(=O)COc6ccccc65)c4)c4ccccc43)[C@@H]2C)cc1
System under test: Torsin-1A (Homo sapiens) (UniProt O14656)
composite z-score: 0.889
//
Compound: CO[C@H]1COC(=O)[C@@H]2CCCN2C(=O)[C@@H](C)COC(=O)CC=C[C@@H]1C
System under test: Torsin-1A (Homo sapiens) (UniProt O14656)
composite z-score: 0.219
//
Compound: CCOC(=O)CCN1C(=O)[C@H]2[C@H]3[C@H](O)[C@H](O)CC(=NNC(=O)OCc4ccc(OC)cc4)[C@@H]3CC[C@H]2C1=O
System under test: Torsin-1A (Homo sapiens) (UniProt O14656)
composite z-score: 0.0335
//
Compound: CS(=O)(=O)CCOC(=O)C1=CC(CCCO)=CC(c2cccs2)N(Cc2cccc(OC(F)(F)F)c2)C=C1C(=O)OCCS(C)(=O)=O (centres undefined)
System under test: Torsin-1A (Homo sapiens) (UniProt O14656)
composite z-score: 0.88
//
Compound: CC(C)=NOCc1ccc(-c2cc(-c3ccccc3)no2)cc1
System under test: Torsin-1A (Homo sapiens) (UniProt O14656)
composite z-score: -0.223
//
Compound: CO[C@H]1COC(=O)[C@H](C)COC(=O)CC=C[C@@H](C)[C@H](OC)COC(=O)CC=C[C@@H]1C
System under test: Torsin-1A (Homo sapiens) (UniProt O14656)
composite z-score: 0.666
//
Compound: O=C1[C@H]2[C@H]3[C@H](O)[C@H](O)CC(=NOC[C@@H](O)COCc4ccco4)[C@H]3CC[C@H]2C(=O)N1c1cccc(Oc2ccccc2)c1
System under test: Torsin-1A (Homo sapiens) (UniProt O14656)
composite z-score: 0.948
//
Compound: NCCCCCNC(=O)[C@@H]1C[C@@H]2C(=O)N3CCC[C@H]3C(=O)N2[C@@H]1c1cccc(OCCO)c1
System under test: Torsin-1A (Homo sapiens) (UniProt O14656)
composite z-score: 1.36
//
Compound: CCCNC(=O)OC[C@H]1O[C@H](CCON=C[C@@H](OC)[C@H](C)C=CCC(=O)OC)C=C[C@@H]1Oc1ccc(OC)cc1
System under test: Torsin-1A (Homo sapiens) (UniProt O14656)
composite z-score: 0.422
//
Compound: COc1ccc(O[C@@H]2[C@H](O)CO[C@H]2C=CC#Cc2ccccc2)cc1
System under test: Torsin-1A (Homo sapiens) (UniProt O14656)
composite z-score: 0.286
//
Compound: CO[C@H]1O[C@H](CO)[C@@H](OC(=O)Nc2ccc3c(c2)OCO3)[C@H](OC(=O)Nc2ccccc2-c2ccccc2)[C@@H]1OC(=O)Nc1ccccc1-c1ccccc1
System under test: Torsin-1A (Homo sapiens) (UniProt O14656)
composite z-score: 1.17
//
Compound: CCOC(=O)[C@H](Cc1ccccc1)NC(=O)CCC1CC(OC(=O)NCc2ccc3c(c2)OCO3)CC2(CCCC(COC(=O)NCC(c3ccccc3)c3ccccc3)O2)O1 (some centres undefined)
System under test: Torsin-1A (Homo sapiens) (UniProt O14656)
composite z-score: 0.401
//
Compound: CCCCCCc1nc(CCCc2cc3c(c(CCCCCC)n2)[Si](C(C)C)(C(C)C)O[C@H]3c2ccccc2)cc2c1[Si](C(C)C)(C(C)C)O[C@H]2c1ccccc1
System under test: Torsin-1A (Homo sapiens) (UniProt O14656)
composite z-score: -0.0949
//
Compound: COc1ccc(O[C@H]2C=C[C@@H](c3ccccc3)O[C@@H]2CON=C[C@@H](C)[C@H](OCc2ccccc2)C(C)C)cc1
System under test: Torsin-1A (Homo sapiens) (UniProt O14656)
composite z-score: -0.91
//
Compound: COCCCNC(=O)[C@@]1(Sc2ccc(C)cc2)CC(=O)N(Cc2ccccc2)[C@@H]1c1ccc(CO)cc1I
System under test: Torsin-1A (Homo sapiens) (UniProt O14656)
composite z-score: 0.0773
//
Compound: COC(=O)[C@H](C)NC(=O)CCC1CC(OC(=O)NCCc2ccc(F)cc2)CC2(CCCC(COC(=O)NCCc3ccc(Cl)cc3)O2)O1 (some centres undefined)
System under test: Torsin-1A (Homo sapiens) (UniProt O14656)
composite z-score: -0.177
//
Compound: COC(=O)[C@@]1(Cc2ccc(OC)cc2)[C@H]2c3cc(C(=O)N4CCCC4)n(Cc4cc(F)c(F)c(F)c4)c3C[C@H]2CN1C(=O)c1ccccc1
System under test: Torsin-1A (Homo sapiens) (UniProt O14656)
composite z-score: 0.538
//
Compound: C=COC[C@H]1CN2[C@@H](CC[C@@H](C)[C@@H]2c2ccc(Br)cc2)C(=O)O1
System under test: Torsin-1A (Homo sapiens) (UniProt O14656)
composite z-score: 0.0658
